# TEST SYSTEM: Human FRAP1 (mTOR) recombinant protein (Homo sapiens, UniProt P42345)
# Construct: GST
# Sequence (P42345 1360-2549 limits assumed): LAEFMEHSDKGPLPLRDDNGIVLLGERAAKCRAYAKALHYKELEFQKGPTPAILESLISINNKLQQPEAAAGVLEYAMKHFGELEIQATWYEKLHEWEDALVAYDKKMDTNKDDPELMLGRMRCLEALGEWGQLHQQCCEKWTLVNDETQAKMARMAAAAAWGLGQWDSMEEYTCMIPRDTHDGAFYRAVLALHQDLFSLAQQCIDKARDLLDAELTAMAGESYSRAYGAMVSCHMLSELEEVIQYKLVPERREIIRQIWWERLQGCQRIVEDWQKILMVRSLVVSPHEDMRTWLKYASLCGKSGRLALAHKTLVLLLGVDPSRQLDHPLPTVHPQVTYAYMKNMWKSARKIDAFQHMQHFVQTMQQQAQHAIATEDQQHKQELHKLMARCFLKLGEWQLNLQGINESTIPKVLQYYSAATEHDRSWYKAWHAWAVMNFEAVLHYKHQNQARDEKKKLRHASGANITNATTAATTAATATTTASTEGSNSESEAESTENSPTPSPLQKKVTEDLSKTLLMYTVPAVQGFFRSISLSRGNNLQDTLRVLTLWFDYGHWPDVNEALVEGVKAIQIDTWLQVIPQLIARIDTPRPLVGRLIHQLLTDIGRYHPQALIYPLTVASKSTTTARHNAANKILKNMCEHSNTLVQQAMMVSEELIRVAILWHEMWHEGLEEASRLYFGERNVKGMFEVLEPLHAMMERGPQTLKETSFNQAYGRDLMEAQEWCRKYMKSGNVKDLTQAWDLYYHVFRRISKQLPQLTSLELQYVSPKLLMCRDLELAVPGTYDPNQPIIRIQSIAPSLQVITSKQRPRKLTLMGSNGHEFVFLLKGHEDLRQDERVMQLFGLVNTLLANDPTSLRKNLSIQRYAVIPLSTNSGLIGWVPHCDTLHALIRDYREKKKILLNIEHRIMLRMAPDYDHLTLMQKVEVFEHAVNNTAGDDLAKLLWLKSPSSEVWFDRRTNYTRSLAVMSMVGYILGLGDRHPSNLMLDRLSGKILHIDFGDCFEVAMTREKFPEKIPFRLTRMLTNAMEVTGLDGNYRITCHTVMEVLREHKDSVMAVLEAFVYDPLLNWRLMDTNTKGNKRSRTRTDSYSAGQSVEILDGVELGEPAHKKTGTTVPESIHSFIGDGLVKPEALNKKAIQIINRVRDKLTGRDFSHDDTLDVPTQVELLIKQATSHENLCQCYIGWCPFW
# EXPERIMENT SUMMARY: FRAP1 (mTOR) kinase activity, LanthaScreen TR-FRET
# APPLIED CONDITIONS: 10 μM ATP, 0.4 μM GFP-4EBP1; read-out: FRAP1 (mTOR) (Enzyme, IC50)
pIC50: −log10 of the molar value.
OBSERVABLE: pIC50

COc1ncc(-c2ccc3ncc4cnc(C5CC5)n4c3c2)cc1NS(=O)(=O)N1CCNCC1 ... 8.44
COc1ncc(-c2ccc3ncc4c(c3c2)n(C(C)C)c(=O)n4C)cc1NS(=O)(=O)N1CCNCC1 ... 8.85
COc1ncc(-c2ccc3ncc4ncc(C5CC5)n4c3c2)cc1NS(=O)(=O)N1CCNCC1 ... 8.47
COc1ncc(-c2ccc3ncc4c(c3c2)n([C@@H]2C[C@@H]2F)c(=O)n4C)cc1NS(=O)(=O)N1CCNCC1 ... 8.19
COc1ncc(-c2ccc3ncc4c(c3c2)n(C2CCC2)c(=O)n4C)cc1NS(=O)(=O)N1CCNCC1 ... 8.12
COc1ncc(-c2ccc3ncc4c(c3c2)n(C2CC2)c(=O)n4C)cc1NS(=O)(=O)N1CCNCC1 ... 8.20

[A] COc1ncc(-c2ccc3ncc4c(c3c2)n(C2CCCC2)c(=O)n4C)cc1NS(=O)(=O)N1CCNCC1
[B] COc1ncc(-c2ccc3ncc4c(c3c2)n([C@H]2C[C@H](O)C2)c(=O)n4C)cc1NS(=O)(=O)N1CCNCC1
Q) Looking at recorded values for pIC50, does A or B come in lower? Your answer should be the label of the entry you select.
A) A
(A: 8.07, B: 8.57)

* * *

pIC50: −log10 of the molar value.
System: DNA-PK(h) (Homo sapiens) | Read-out: pIC50
OBSERVABLE: pIC50

Reference set (5 entries):
COc1ncc(-c2ccc3ncc4c(c3c2)n(CC(F)(F)F)c(=O)n4C)cc1NS(=O)(=O)N1CCNCC1 ... 9.52
COc1ncc(-c2ccc3ncc4c(c3c2)n(C(C)C)c(=O)n4C)cc1NS(=O)(=O)N1CCNCC1 ... 9.52
COc1ncc(-c2ccc3ncc4c(c3n2)n(C2CC2)c(=O)n4C)cc1NS(=O)(=O)N1CCNCC1 ... 9.52
COc1ncc(-c2ccc3ncc4c(c3c2)n([C@@H]2C[C@@H]2F)c(=O)n4C)cc1NS(=O)(=O)N1CCNCC1 ... 9.70
COc1ncc(-c2ccc3ncc4c(c3c2)n(C2CC2)c(=O)n4C)cc1NS(=O)(=O)N1CCNCC1 ... 9.40

[1] COCC1(n2c(=O)n(C)c3cnc4ccc(-c5cnc(OC)c(NS(=O)(=O)N6CCNCC6)c5)cc4c32)CC1
[2] COc1ncc(-c2ccc3ncc4c(C)nc(C5CC5)n4c3c2)cc1NS(=O)(=O)N1CCNCC1
[3] COc1ncc(-c2ccc3ncc4cnc(C5CC5)n4c3c2)cc1NS(=O)(=O)N1CCNCC1
Q) Place the items in sequence of falling pIC50. List labels; respect the requested ordering.
A) 3, 2, 1
(3: 10.00, 2: 9.70, 1: 9.22)

* * *

# Tested on: MDA-MB-453
# EXPERIMENT SUMMARY: Inhibition of cell proliferation by payloads in vitro (CCK-8)
# Assay type: cell-based
# APPLIED CONDITIONS: Homo sapiens, MDA-MB-453, 144 h, read-out: IC50, nM MDA-MB-453; payloads, proliferation, 6 days, CCK-8
OBSERVABLE: IC50 (nM)

COCC1(n2c(=O)n(C)c3cnc4ccc(-c5cnc(OC)c(NS(=O)(=O)N6CCNCC6)c5)cc4c32)CC1 [Compound 30] ... 0.41

[P] COc1ncc(-c2ccc3ncc4ncc(C5CC5)n4c3c2)cc1NS(=O)(=O)N1CCNCC1 [Compound 23]
[Q] COc1ncc(-c2ccc3ncc4nnc(C5CCC5)n4c3c2)cc1NS(=O)(=O)N1CCNCC1 [Compound 4]
[R] Cn1c(=O)n(C2CC2)c2c3cc(-c4cnc(OCC(F)(F)F)c(NS(=O)(=O)N5CCNCC5)c4)ccc3ncc21 [Compound 34]
Q) // smallest IC50 at index 0, largest at the end # answer = labels listed in requested order
A) P, Q, R

* * *

# Tested on: MDA-MB-453
# EXPERIMENT SUMMARY: Inhibition of cell proliferation by payloads in vitro (CCK-8)
# Type: cell-based
# APPLIED CONDITIONS: Homo sapiens, MDA-MB-453, 144 h, read-out: IC50, nM MDA-MB-453; payloads, proliferation, 6 days, CCK-8
OBSERVABLE: IC50 (nM)

Examples with answers:
COc1ncc(-c2ccc3ncc4ncn(C5CCC5)c4c3c2)cc1NS(=O)(=O)N1CCNCC1 ... 1.8
COc1ncc(-c2ccc3ncc4cnc(C5CC(F)(F)C5)n4c3c2)cc1NS(=O)(=O)N1CCNCC1 ... 0.24
COc1ncc(-c2ccc3ncc4c(c3c2)n([C@H]2C[C@H](CO)C2)c(=O)n4C)cc1NS(=O)(=O)N1CCN(C)CC1 ... 1.8
COc1ncc(-c2ccc3ncc4c(c3c2)n([C@H]2C[C@H](CO)C2)c(=O)n4C)cc1NS(=O)(=O)N1CCNCC1 ... 0.32
COc1ncc(-c2ccc3ncc4c(c3c2)n(C)c(=O)n4C)cc1NS(=O)(=O)N1CCNCC1 ... 0.25

[a] [2H]C([2H])([2H])n1c(=O)n(C2CC2)c2c3cc(-c4cnc(OC)c(NS(=O)(=O)N5CCNCC5)c4)ccc3ncc21
[b] COc1ncc(-c2ccc3ncc4c(c3c2)C(C2CC2)N=N4)cc1NS(=O)(=O)N1CCNCC1 (stereo not shown)
Q) Given a and given b , which shows the smaller recorded IC50? Use the label to indicate which entry you chose.
A) a
(a: 0.22 nM, b: 1.3 nM)

* * *

# System: MDA-MB-453
# EXPERIMENT SUMMARY: Inhibition of cell proliferation by payloads in vitro (CCK-8)
# Format: cell-based
# APPLIED CONDITIONS: Homo sapiens, MDA-MB-453, 144 h, read-out: IC50, nM MDA-MB-453; payloads, proliferation, 6 days, CCK-8
OBSERVABLE: IC50 (nM)

[P] COc1ncc(-c2ccc3ncc4c(c3c2)n(C2CC2)c(=O)n4C)cc1NS(=O)(=O)N1CCN(C)CC1 [Compound 10]
[Q] COc1ncc(-c2ccc3ncc4c(c3c2)n(C(C)C)c(=O)n4C)cc1NS(=O)(=O)N1CCNCC1 [Compound 29]
[R] COc1ncc(-c2ccc3ncc4c(c3c2)n(C2CC2)c(=O)n4C)cc1NS(=O)(=O)N1CC2CNCC2C1 (stereo not shown) [Compound 12]
[S] COc1ncc(-c2ccc3ncc4c(c3c2)n(C2CC2)c(=O)n4C)cc1NS(=O)(=O)N1CCC2(CC1)CNC2 [Compound 15]
Q) Put these in order: smallest IC50 first, largest last. Use the labels to give the requested order.
A) Q, P, R, S

* * *

# TEST SYSTEM: Human PIK3CA/PIK3R1 (p110α/p85α) recombinant protein (Homo sapiens, UniProt P42336)
# Construct: His tag
# Sequence (P42336 whole entry): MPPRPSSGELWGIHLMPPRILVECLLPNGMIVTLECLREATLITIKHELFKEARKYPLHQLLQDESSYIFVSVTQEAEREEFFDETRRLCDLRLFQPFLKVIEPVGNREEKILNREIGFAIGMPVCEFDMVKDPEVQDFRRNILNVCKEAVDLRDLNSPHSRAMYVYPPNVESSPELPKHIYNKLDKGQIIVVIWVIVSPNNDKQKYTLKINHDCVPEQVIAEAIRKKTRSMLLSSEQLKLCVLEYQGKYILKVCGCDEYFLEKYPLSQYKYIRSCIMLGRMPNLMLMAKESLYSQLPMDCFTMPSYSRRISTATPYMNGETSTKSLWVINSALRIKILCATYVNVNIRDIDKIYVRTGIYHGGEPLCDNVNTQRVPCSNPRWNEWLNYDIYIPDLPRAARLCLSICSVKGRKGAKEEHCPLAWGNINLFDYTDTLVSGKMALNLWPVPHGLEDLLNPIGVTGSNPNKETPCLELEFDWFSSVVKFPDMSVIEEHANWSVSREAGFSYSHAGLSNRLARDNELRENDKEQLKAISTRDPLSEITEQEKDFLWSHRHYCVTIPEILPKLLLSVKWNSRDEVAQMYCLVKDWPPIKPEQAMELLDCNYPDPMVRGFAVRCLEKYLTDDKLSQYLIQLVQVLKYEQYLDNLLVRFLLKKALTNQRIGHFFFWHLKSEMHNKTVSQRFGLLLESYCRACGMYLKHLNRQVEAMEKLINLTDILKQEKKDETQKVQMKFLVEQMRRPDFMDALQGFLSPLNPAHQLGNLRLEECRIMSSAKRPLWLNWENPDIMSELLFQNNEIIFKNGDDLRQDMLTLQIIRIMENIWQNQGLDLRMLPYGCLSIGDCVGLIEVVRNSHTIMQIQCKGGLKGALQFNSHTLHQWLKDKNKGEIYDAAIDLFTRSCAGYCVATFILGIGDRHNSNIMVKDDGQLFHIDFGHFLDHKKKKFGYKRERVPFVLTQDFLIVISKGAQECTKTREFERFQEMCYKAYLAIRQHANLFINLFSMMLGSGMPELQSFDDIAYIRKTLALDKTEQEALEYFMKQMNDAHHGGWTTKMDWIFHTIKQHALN
# Sequence (P27986 whole entry partner): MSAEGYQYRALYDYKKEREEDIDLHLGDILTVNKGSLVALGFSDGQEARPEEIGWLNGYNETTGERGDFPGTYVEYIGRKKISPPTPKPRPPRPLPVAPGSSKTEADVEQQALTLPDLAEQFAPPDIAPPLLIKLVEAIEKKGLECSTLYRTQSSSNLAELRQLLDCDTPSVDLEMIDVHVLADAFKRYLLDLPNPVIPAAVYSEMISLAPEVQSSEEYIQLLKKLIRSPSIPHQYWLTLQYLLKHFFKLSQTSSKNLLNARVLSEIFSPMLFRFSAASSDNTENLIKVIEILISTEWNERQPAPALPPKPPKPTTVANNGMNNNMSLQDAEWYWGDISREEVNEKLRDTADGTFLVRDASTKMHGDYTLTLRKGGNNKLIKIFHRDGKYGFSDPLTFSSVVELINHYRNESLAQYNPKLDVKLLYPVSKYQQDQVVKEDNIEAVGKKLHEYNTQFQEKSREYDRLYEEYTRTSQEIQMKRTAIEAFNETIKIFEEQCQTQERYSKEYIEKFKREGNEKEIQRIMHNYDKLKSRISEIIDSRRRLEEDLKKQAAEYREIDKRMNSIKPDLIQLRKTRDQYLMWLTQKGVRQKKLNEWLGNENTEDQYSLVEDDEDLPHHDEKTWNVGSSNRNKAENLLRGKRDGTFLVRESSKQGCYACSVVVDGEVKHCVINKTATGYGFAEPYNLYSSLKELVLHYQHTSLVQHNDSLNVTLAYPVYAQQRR
# EXPERIMENT SUMMARY: PIK3CA/PIK3R1 (p110α/p85α) kinase activity, Transcreener ADP2 FP
# APPLIED CONDITIONS: 10 μM ATP, 30 μM PIP2:PS; read-out: PIK3CA/PIK3R1 (p110α/p85α) (Enzyme, IC50)
pIC50: −log10 of the molar value.
OBSERVABLE: pIC50

Would you please look over these solved cases?
COc1ncc(-c2ccc3ncc4c(c3c2)n(C2CC2)c(=O)n4C)cc1NS(=O)(=O)C1CCNCC1 ... 9.22
COc1ncc(-c2ccc3ncc4ncc(C5CC5)n4c3c2)cc1NS(=O)(=O)N1CCNCC1 ... 9.15
COc1ncc(-c2ccc3ncc4c(c3c2)n(C2CC2)c(=O)n4C)cc1NS(=O)(=O)N1CCNCC1 ... 9.15
COc1ncc(-c2ccc3ncc4c(c3c2)n(C2CCCC2)c(=O)n4C)cc1NS(=O)(=O)N1CCNCC1 ... 8.85

[P] COc1ncc(-c2ccc3ncc4cnc(C5CC(F)(F)C5)n4c3c2)cc1NS(=O)(=O)N1CCNCC1
[Q] COc1ncc(-c2ccc3ncc4c(c3n2)n(C2CC2)c(=O)n4C)cc1NS(=O)(=O)N1CCNCC1
Q) // select label with min value of measured pIC50 from [ P , Q ] Return value: the label identifying the chosen record.
A) P

* * *

# TEST SYSTEM: Human PIK3CA/PIK3R1 (p110α/p85α) recombinant protein (Homo sapiens, UniProt P42336)
# Construct: His tag
# EXPERIMENT SUMMARY: PIK3CA/PIK3R1 (p110α/p85α) kinase activity, Transcreener ADP2 FP
# APPLIED CONDITIONS: 10 μM ATP, 30 μM PIP2:PS; read-out: PIK3CA/PIK3R1 (p110α/p85α) (Enzyme, IC50)
pIC50: −log10 of the molar value.
OBSERVABLE: pIC50

See these solved cases before continuing.
COc1ncc(-c2ccc3ncc4c(c3c2)n(C(C)C)c(=O)n4C)cc1NS(=O)(=O)N1CCNCC1 [Compound 29] ... 8.85
COc1ncc(-c2ccc3ncc4cnc(C5CC5)n4c3c2)cc1NS(=O)(=O)N1CCNCC1 [Compound 1] ... 9.30

[P] COc1ncc(-c2ccc3ncc4c(c3c2)n(C2CCC2)c(=O)n4C)cc1NS(=O)(=O)N1CCNCC1 [Compound 5]
[Q] COc1ncc(-c2ccc3ncc4c(c3c2)n(CC(F)(F)F)c(=O)n4C)cc1NS(=O)(=O)N1CCNCC1 [Compound 32]
Q) From the recorded data, which exceeds the other in pIC50: P or Q ? Answer by stating the label of the chosen item.
A) P
(P: 8.80, Q: 8.55)

[A] COc1ncc(-c2ccc3ncc4cnc(C5CCC5)n4c3c2)cc1NS(=O)(=O)N1CCNCC1 [Compound 18]
[B] COc1ncc(-c2ccc3ncc4c(c3c2)n([C@H]2C[C@H](O)C2)c(=O)n4C)cc1NS(=O)(=O)N1CCNCC1 [Compound 7]
Q) Hi there, can you help? I need to know whether A or B has lower measured pIC50. Your choice should be expressed through its label.
A) A
(A: 8.68, B: 9.30)
